test-target: human Branched Chain Amino Acid Aminotransferase cytosolic form (hBCATc) (Homo sapiens, UniProt P54687)
Construct: inferred from purification on a Ni-charged chelating column with imidazole elution; made in house; host or cells: E. coli BL21(DE3)
procedure-summary: In vitro coupled enzyme assay, hBCATc
Assay type: biochemical
test-settings: @ 20 μM compound; 37° C., pH 7.8 coupled assay; read-out: hBCATc Inhibit % @ 20 μM
readout-kind: inhibition at 20 µM (%)

molecule="CC(C)CC(C)NC(=O)/C=C1\\SC(Nc2c(Cl)cccc2Cl)=NC1=O (stereo not shown)" unit_tag=% reading=33

A. O=C(/C=C1\SC(Nc2c(Cl)cccc2Cl)=NC1=O)NC1CCCCCC1
B. O=C(/C=C1\SC(Nc2c(Cl)cccc2Cl)=NC1=O)NCc1ccc(Cl)cc1
Enquiry: # return whichever of A and B has the smaller inhibition at 20 µM Mark your selection by writing its label.
Return: A
(A: 39%, B: 130%)

====

readout-kind: melting point

Guide cases for melting point, answers given:
molecule="COC(=O)/C=C1\\SC(Nc2ccccc2C)=NC1=O (hydrate or solvate) [Example 4]" reading="200.7 to 201.2 °C"
molecule="COC(=O)/C=C1\\SC(Nc2cccc(Cl)c2Cl)=NC1=O [Example 13]" reading="204 to 204.3 °C"
molecule="CNC(=O)/C=C1\\SC(Nc2c(Cl)cccc2Cl)=NC1=O (hydrate or solvate) [Example 6]" reading="> 230 °C"
molecule="CCNC(=O)/C=C1\\SC(Nc2c(Cl)cccc2Cl)=NC1=O (hydrate or solvate) [Example 7]" reading="> 250 °C"
molecule="COC(=O)/C=C1\\SC(Nc2c(Cl)cc(Cl)cc2Cl)=NC1=O [Example 14]" reading="241.3 to 241.7 °C"
molecule="CCCNC(=O)/C=C1\\SC(Nc2c(Cl)cccc2Cl)=NC1=O (hydrate or solvate) [Example 8]" reading="> 230 °C"
molecule="COC(=O)/C=C1\\SC(Nc2cc(Cl)ccc2Cl)=NC1=O [Example 12]" reading="198.8 to 199.4 °C"
molecule="COC(=O)/C=C1\\SC(Nc2ccc(Cl)cc2Cl)=NC1=O [Example 11]" reading="211.6 to 212.3 °C"

Enquiry: Look up and state reported melting point for CONC(=O)/C=C1\SC(Nc2c(Cl)cccc2Cl)=NC1=O (hydrate or solvate) [Example 10]
Return: 204.8 to 205.6 °C

Enquiry: Give me measured melting point, please, for this molecule: COC(=O)/C=C1\SC(Nc2ccccc2Cl)=NC1=O [Example 15]
Return: 194 to 194.6 °C

====

test-target: human Branched Chain Amino Acid Aminotransferase cytosolic form (hBCATc) (Homo sapiens)
Sequence (P54687 1-386): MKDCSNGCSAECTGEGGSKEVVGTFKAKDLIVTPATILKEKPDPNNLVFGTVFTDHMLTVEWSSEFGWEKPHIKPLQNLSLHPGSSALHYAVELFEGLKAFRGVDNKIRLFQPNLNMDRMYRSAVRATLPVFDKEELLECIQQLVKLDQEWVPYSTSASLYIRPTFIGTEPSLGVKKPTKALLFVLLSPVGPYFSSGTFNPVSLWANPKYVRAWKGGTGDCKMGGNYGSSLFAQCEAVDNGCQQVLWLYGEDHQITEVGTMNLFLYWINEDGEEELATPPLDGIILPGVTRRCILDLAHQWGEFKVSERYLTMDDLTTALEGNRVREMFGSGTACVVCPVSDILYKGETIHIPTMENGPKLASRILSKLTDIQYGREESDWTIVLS
readout-kind: IC50 (µM)

Here is how some molecules turned out for IC50.
molecule="COC(=O)/C=C1\\SC(Nc2c(Cl)cc(Cl)cc2Cl)=NC1=O [Example 14]" readout_kind=IC50 reading=16.6
molecule="CC(C)NC(=O)/C=C1\\SC(Nc2c(Cl)cccc2Cl)=NC1=O [Example 20]" readout_kind=IC50 reading=65.9
molecule="O=C1N=C(Nc2c(Cl)cccc2Cl)S/C1=C\\C(=O)N1CCCC1 [Example 21]" readout_kind=IC50 reading=13.8

1. CC1CC(C)CN(C(=O)/C=C2\SC(Nc3c(Cl)cccc3Cl)=NC2=O)C1 (stereo not drawn) [Example 24]
2. CCOC(=O)/C=C1\SC(Nc2c(Cl)cccc2Cl)=NC1=O [Example 2]
3. CONC(=O)/C=C1\SC(Nc2c(Cl)cccc2Cl)=NC1=O [Example 10]
4. CN1CCC(N(C)C(=O)/C=C2\SC(Nc3c(Cl)cccc3Cl)=NC2=O)C1 (stereo not drawn) [Example 32]
5. COC(=O)/C=C1\SC(Nc2cccc(Cl)c2Cl)=NC1=O [Example 13]
Enquiry: Order by IC50, ascending. In your reply, arrange the labels in the requested order.
Return: 1, 5, 3, 2, 4

P. CNCCCCCCCCN(C)C(=O)/C=C1\SC(Nc2c(Cl)cccc2Cl)=NC1=O [Example 34]
Q. O=C1N=C(Nc2c(Cl)cccc2Cl)S/C1=C\C(=O)N1CCCCC1 [Example 17]
Enquiry: Recorded IC50 values differ for P and Q ; which one is higher? I would appreciate it if you answered with the label of your choice.
Return: P
(P: 75.6 µM, Q: 12.8 µM)
